Target: glucose-6-phosphate dehydrogenase-6-phosphogluconolactonase (Plasmodium falciparum 3D7)
Experiment: PfG6PD enzyme inhibitors, kinetic NADPH readout, dose response, orthogonal assay, biochemical, kinetic NADPH detection (AID 540269)
Conditions: purified PfG6PD-6PGL
endpoint label: IC50

C=CCOc1c(Cl)cc(CNc2ccc(N(C)C)cc2)cc1OC | 61.5 µM
Cc1ccc(S(=O)(=O)SCCCSS(=O)(=O)c2ccc(C)cc2)cc1 | 35.6 µM
CCOC(=O)c1c(C)n(-c2ccc(C)cc2)c2c(C(C(C)=O)C(=O)O)c(Br)c(O)c(O)c12 (stereo not drawn) | 57.4 µM

###

Biological target: glucose-6-phosphate dehydrogenase-6-phosphogluconolactonase (Plasmodium falciparum 3D7)
Assay: PfG6PD enzyme inhibitors, kinetic NADPH readout, dose response, orthogonal assay, biochemical, kinetic NADPH detection (AID 540269)
Conditions: purified PfG6PD-6PGL
pIC50: −log10 of the molar value.
endpoint label: pIC50

CN(C)S(=O)(=O)c1cccc(-n2sc3ccccc3c2=O)c1 | 4.89
CC(C)c1nnc(NC(=O)c2sc3ccccc3c2Cl)s1 | 4.45
COc1ccc(C(=O)Nc2nnc(S(=O)(=O)N3CCOCC3)s2)cc1 | 4.48

###

Target: glucose-6-phosphate dehydrogenase-6-phosphogluconolactonase (Plasmodium falciparum 3D7)
Experiment: PfG6PD enzyme inhibitors, kinetic NADPH readout, dose response, orthogonal assay, biochemical, kinetic NADPH detection (AID 540269)
Details: purified PfG6PD-6PGL
The source made the active and inactive calls. No rule for the calls is given here.
endpoint label: IC50

C#CCCc1cscc1/C=[N+](\[O-])c1ccc(C(=O)OCC)cc1 | 36.4 µM
COc1ccc(NC2CCCN(Cc3cccc4cnccc34)C2)cc1OC (stereo not given) | > 80 µM (inactive)
CCS(=O)(=O)N1CCN(c2ccc([N+](=O)[O-])c(NC(C)c3ccccc3)c2)CC1 (stereo not given) | > 80 µM (inactive)
O=c1c2ccccc2sn1-c1ccc(Cl)cc1 | 17.1 µM
c1ccc(-c2nc(N3CCOCC3)s[n+]2-c2ccccc2)cc1 | > 80 µM (inactive)
OCc1ccccc1SSc1ccccc1CO | 53.1 µM
C[C@H](NC(N)=O)C(=O)Nc1ccc(N2CCOCC2)c(S(=O)(=O)Nc2ccc(Cl)cc2)c1 | > 80 µM (inactive)
Oc1ccc(-c2cn3c(n2)SCC3)cc1O | 46.5 µM
CCn1c([N+](=O)[O-])nc2c1c(=O)[nH]c(=O)n2C | > 80 µM (inactive)
COCCn1nnnc1C(c1cc2cc(OC)c(OC)cc2[nH]c1=O)N1CCN(c2ccc(O)cc2)CC1 (stereo not given) | 30.3 µM
O=c1c2cc([N+](=O)[O-])ccc2sn1-c1ccccc1 | 15.9 µM
Cc1ccc2nc(-c3ccc(NC(=S)NC4CC(C)(C)NC(C)(C)C4)cc3)sc2c1 | > 80 µM (inactive)
O=C(NCCCN1CCOCC1)c1sc2cc([N+](=O)[O-])ccc2c1Cl | 38.5 µM
CN1C(=O)CSc2ccc(NC(=O)N3CCc4ccccc43)cc21 | > 80 µM (inactive)
CC(NC1=CC(=O)c2cccnc2C1=O)C(O)c1ccccc1 (stereo not given) | 45.1 µM

###

Target: glucose-6-phosphate dehydrogenase-6-phosphogluconolactonase (Plasmodium falciparum 3D7)
Test: PfG6PD enzyme inhibitors, kinetic NADPH readout, dose response, orthogonal assay, biochemical, kinetic NADPH detection (AID 540269)
Settings: purified PfG6PD-6PGL
Active and inactive are the calls of the source. No rule for the calls is given here.
Reported IC50 values follow for various compounds
endpoint label: IC50

COc1ccc(OCc2nnc3n2N=C(c2ccccc2)C(CC(=O)O)S3)cc1 (stereo unspecified) | > 80 µM (inactive)
O=C(COc1cccc2ccccc12)Nc1ccc(Cl)cc1C(=O)O | 33.7 µM
NCCNc1ccc(C(=O)N2c3ccccc3Sc3ccccc32)cc1[N+](=O)[O-] | 23.5 µM
O=[N+]([O-])c1ccc2c(c1)-c1ccccc1C2O (stereo unspecified) | 42.9 µM
COc1ccc(N2C(=O)/C(=C/c3cccs3)NC2=S)cc1 | 40.2 µM
COc1cc(CN2CCCC(C(=O)c3ccc4c5c(cccc35)CC4)C2)cc(OC)c1O (stereo unspecified) | 28.4 µM

Source of measurements: PubChem BioAssay AID540269
